Values compiled from patent US12662541B2.

This listing pairs molecules with measured kd.
Molecular target: T1, rhEphA5 antigen (Homo sapiens, UniProt P54756)
T1 construct: purchased R and D systems 3036-A5
Test: kd (1/s)
Provide only the numeric value, understood in s⁻¹.

# query: kd of entry VH4/VK2: humanized anti-EphA5 antibody, VH SEQ ID NO:5, VL SEQ ID NO:10 (antibody, V domains shown) VH: EVQLVESGGGLVQPGGSLKLSCAASGFTFSTFGIHWVRQAPGKGLEWVAYISGASTTIYYADTVKGRFTISRDNSKNTLYLQMNSLRAEDTAVYYCARYGTSFPYGLDYWGQGTLVTVSS VL: DIVMTQSPDSLAVSLGERATINCKASQSVDYDGDSYMNWYQQKPGKAPKLLIYGASNLESGIPDRFSGSGSGTDFTLTISRLEPEDAASYYCQQSNEDPFTFGQGTKLEIK 0.00114

Report kd for VH2/VK2: humanized anti-EphA5 antibody, VH SEQ ID NO:3, VL SEQ ID NO:10 (antibody, V domains shown) VH: EVTLVESGGGLVQPGGSLKLSCAASGFTFSTFGIHWVRQAPGKGLEWVAYISGASTTIYYADTVKGRFTISRDNSKNTLYLQMNSLRSEDTAMYYCARYGTSFPYGLDYWGQGTLVTVSS VL: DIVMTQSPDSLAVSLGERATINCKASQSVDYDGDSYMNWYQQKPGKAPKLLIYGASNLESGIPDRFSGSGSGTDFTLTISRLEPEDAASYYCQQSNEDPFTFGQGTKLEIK please. 0.00126

Consider the molecule VH1/VK1: humanized anti-EphA5 antibody, VH SEQ ID NO:2, VL SEQ ID NO:9 (antibody, V domains shown) VH: EVTLVESGGGLVQPGGSRKLSCAASGFTFSTFGIHWVRQAPGKGLEWVAYISGASTTIYYADTVKGRFTISRDNSKNTLYLQMNSLRSEDTAMYYCARYGTSFPYGLDYWGQGTSVTVSS VL: DIVMTQSPGSLAVSLGERATINCKASQSVDYDGDSYMNWYQQKPGKAPKLLIYGASNLESGIPDRFSGSGSGTDFTLTISRLEEEDAASYYCQQSNEDPFTFGQGTKLEIK and give its measured kd. 0.00128

Okay, next one:
Quick check: kd of VH4/VK1: humanized anti-EphA5 antibody, VH SEQ ID NO:5, VL SEQ ID NO:9 (antibody, V domains shown) VH: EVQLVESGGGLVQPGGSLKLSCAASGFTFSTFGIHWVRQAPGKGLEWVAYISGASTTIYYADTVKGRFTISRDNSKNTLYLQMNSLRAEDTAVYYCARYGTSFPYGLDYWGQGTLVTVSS VL: DIVMTQSPGSLAVSLGERATINCKASQSVDYDGDSYMNWYQQKPGKAPKLLIYGASNLESGIPDRFSGSGSGTDFTLTISRLEEEDAASYYCQQSNEDPFTFGQGTKLEIK ? 0.00129
